Where these numbers come from: paper PMC11528320

- Test system: HEK293 cells
- experiment.notes: HEK293 cell viability (resazurin) assay
- Format: cell-based, Human
- condition.info: ratio of HEK293 IC50 (or relative IC50) to P. falciparum 3D7 IC50
Measured SI, HEK293/3D7 accompanies every entry in the list below.

CC(C)CCn1cc(NC(=O)c2cc(NC(=O)c3cc(NC(=N)c4cc5ccccc5cn4)cn3C)cn2C)cc1C(=O)NCCCN(C)C.O=C(O)C(F)(F)F >98.1
Cn1cc(NC(=O)c2cc(NC(=O)c3ccc(NC(=O)c4cccc(F)c4)cc3)cn2C)cc1C(=O)NCCC(=N)N.O=C(O)C(F)(F)F >46.6

stdin: Using the record for Cn1cc(NC(=O)c2cc(NC(=O)c3ccc(/C=C/c4ccncc4)cc3)cn2C)cc1C(=O)NCCC(=N)N.O=C(O)C(F)(F)F.O=C(O)C(F)(F)F , report its SI, HEK293/3D7.
stdout: >612.6
